B1: Max-interacting protein 1, residues 70 to 120; numbered along this chain, P50539 (parent)
chain: STHNELEKNRRAHLRLCLERLKVLIPLGPDCTRHTTLGLLNKAKAHIKKLE

variants of: B1; assay: abundance fitness (aPCA) (normalised: wild type 0, dead -1); higher = more abundant; growth selection in yeast, the domain comes from the species named; settings: Homo sapiens
Measured abundance fitness values are reported for all entries that follow.
measured.parameter: abundance fitness

[[record]]
input_sequence = "STHNELEKNRRAHLRLCLERLKVLIPLGPDCTAHTTLGLLNKAKAHIKKLE"
measured_parameter = "abundance fitness"
obs_value = -0.338

[[record]]
input_sequence = "STHNELFKNRRAHLRLCLERLKVLIPLGPDCTRHTTLGLLNKAKAHIKKLE"
measured_parameter = "abundance fitness"
obs_value = -0.273

[[record]]
input_sequence = "STHNELEKNRRAHLRLCLERLKVLIPLGPDCTRHTTLGLLNQAKAHIKKLE"
measured_parameter = "abundance fitness"
obs_value = -0.44

[[record]]
input_sequence = "STHNELEKNRRAHLRLCLERAKVLIPLGPDCTRHTTLGLLNKAKAHIKKLE"
measured_parameter = "abundance fitness"
obs_value = -0.547

[[record]]
input_sequence = "STHNELEKNRRAHLRLCLERLKVLIPLGPDCTRHTTLGTLNKAKAHIKKLE"
measured_parameter = "abundance fitness"
obs_value = -0.535

[[record]]
input_sequence = "STHNELEKNRRAHLRLCLERLKMLIPLGPDCTRHTTLGLLNKAKAHIKKLE"
measured_parameter = "abundance fitness"
obs_value = 0.064

[[record]]
input_sequence = "STHNELEKNRRAHLRLCLERLKVLIPLGPFCTRHTTLGLLNKAKAHIKKLE"
measured_parameter = "abundance fitness"
obs_value = 0.036

[[record]]
input_sequence = "STHNELEKNRRAHLRLCLERLKVLIPLGGDCTRHTTLGLLNKAKAHIKKLE"
measured_parameter = "abundance fitness"
obs_value = -0.119

[[record]]
input_sequence = "STHNELEKNRRAHKRLCLERLKVLIPLGPDCTRHTTLGLLNKAKAHIKKLE"
measured_parameter = "abundance fitness"
obs_value = -0.625

[[record]]
input_sequence = "STHNELEKNRRAHLRLCLERLKVLIPLGPDCTRHTILGLLNKAKAHIKKLE"
measured_parameter = "abundance fitness"
obs_value = -0.028

[[record]]
input_sequence = "ATHNELEKNRRAHLRLCLERLKVLIPLGPDCTRHTTLGLLNKAKAHIKKLE"
measured_parameter = "abundance fitness"
obs_value = -0.6

[[record]]
input_sequence = "STHNELEKNRRAHLRLCLERLKVAIPLGPDCTRHTTLGLLNKAKAHIKKLE"
measured_parameter = "abundance fitness"
obs_value = -0.329

[[record]]
input_sequence = "STHNELEKNRRAHLRLCLERLKVLIPLGPDCTRHGTLGLLNKAKAHIKKLE"
measured_parameter = "abundance fitness"
obs_value = -0.031

[[record]]
input_sequence = "STHNELEKNRRAHLRLCLERLKVLINLGPDCTRHTTLGLLNKAKAHIKKLE"
measured_parameter = "abundance fitness"
obs_value = 0.063

[[record]]
input_sequence = "STHNELEKNRRAHLRLCLERLKVLIPLGPDYTRHTTLGLLNKAKAHIKKLE"
measured_parameter = "abundance fitness"
obs_value = -0.13

[[record]]
input_sequence = "STHNELEKNRRAHLRYCLERLKVLIPLGPDCTRHTTLGLLNKAKAHIKKLE"
measured_parameter = "abundance fitness"
obs_value = -0.241

[[record]]
input_sequence = "SAHNELEKNRRAHLRLCLERLKVLIPLGPDCTRHTTLGLLNKAKAHIKKLE"
measured_parameter = "abundance fitness"
obs_value = -0.303

[[record]]
input_sequence = "STHNELEKNRRAHLRLCLERLKVLIPLGPDMTRHTTLGLLNKAKAHIKKLE"
measured_parameter = "abundance fitness"
obs_value = -0.087

[[record]]
input_sequence = "STHNELEKNRRAHLRLCLERLKVLIPLGPDCTRHTTLGLLNHAKAHIKKLE"
measured_parameter = "abundance fitness"
obs_value = -0.813

[[record]]
input_sequence = "STHNELEKNRRAHLRLCLERLKVLIPLGPDCTRHFTLGLLNKAKAHIKKLE"
measured_parameter = "abundance fitness"
obs_value = 0.198

[[record]]
input_sequence = "STHNELEKNRRAHLRLCLERLKVLIPLGPDCTRHVTLGLLNKAKAHIKKLE"
measured_parameter = "abundance fitness"
obs_value = 0.057

[[record]]
input_sequence = "STHNELEKNRRAHLRLCLERLKVLIPLGPDCTRHTTLGLLNKAKAHIKKLR"
measured_parameter = "abundance fitness"
obs_value = 0.452

[[record]]
input_sequence = "STHNELEKNRRAHMRLCLERLKVLIPLGPDCTRHTTLGLLNKAKAHIKKLE"
measured_parameter = "abundance fitness"
obs_value = -0.208

[[record]]
input_sequence = "STHNELEKNRRAHLRLCLERLKVLIPLGRDCTRHTTLGLLNKAKAHIKKLE"
measured_parameter = "abundance fitness"
obs_value = 0.216

[[record]]
input_sequence = "STHNELEKNRRAHLRLCLERLKVLDPLGPDCTRHTTLGLLNKAKAHIKKLE"
measured_parameter = "abundance fitness"
obs_value = -0.852

[[record]]
input_sequence = "STHNELEKNRRAHLRLCLERLKVLIPLGPDCTRHTTLGLLNKAKATIKKLE"
measured_parameter = "abundance fitness"
obs_value = 0.154

[[record]]
input_sequence = "STHNELEKNRRAHLRLCLERLKVLIPLHPDCTRHTTLGLLNKAKAHIKKLE"
measured_parameter = "abundance fitness"
obs_value = -0.147

[[record]]
input_sequence = "STHNELEKNRRAHLRLCLERLKVLIPLGPDCTRHTTLGLLNCAKAHIKKLE"
measured_parameter = "abundance fitness"
obs_value = -0.185

